B1: CDC25B (parent)
chain: KSPIAPCSLDKRVILIFHCEFSSE

Variants of: B1
protocol-text: protein stability index of a GFP-peptide fusion (GPS, HEK-293T) (PSI 1-6); higher = more stable;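 note: lentivirally expressed fusions sorted by FACS into six bins by GFP to DsRed ratio, PSI derived from sequencing read proportions per bin multiplied by bin number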
experimental-parameters: c terminus: a fixed tail appended
# maps each entry to its protein stability index
outcome-measure: protein stability index

mutations=L9K observed_measurement=2.39
mutations=L9N observed_measurement=2.78
mutations=E20C observed_measurement=4.34
mutations=S8G observed_measurement=3.16
mutations=V13K observed_measurement=1.32
mutations=S2F observed_measurement=3.02
mutations=I14R observed_measurement=1.79
mutations=V13A observed_measurement=3.2
mutations=L9D observed_measurement=2.66
mutations=L9C observed_measurement=2.46
mutations=I14S observed_measurement=1.94
mutations=H18G observed_measurement=2.81
mutations=D10I observed_measurement=2.12
mutations=I14E observed_measurement=2.07
mutations=R12N observed_measurement=2.76
mutations=S8W observed_measurement=1.81
mutations=L9F observed_measurement=2.64
mutations=F17H observed_measurement=1.64
mutations=L9Q observed_measurement=2.42
mutations=F17V observed_measurement=4.17
mutations=H18D observed_measurement=3.1
mutations=A5I observed_measurement=2.65
mutations=P3Q observed_measurement=3.1
